Target: IdeR (Mycobacterium tuberculosis)
Sequence (P9WMH1 whole entry, looked up): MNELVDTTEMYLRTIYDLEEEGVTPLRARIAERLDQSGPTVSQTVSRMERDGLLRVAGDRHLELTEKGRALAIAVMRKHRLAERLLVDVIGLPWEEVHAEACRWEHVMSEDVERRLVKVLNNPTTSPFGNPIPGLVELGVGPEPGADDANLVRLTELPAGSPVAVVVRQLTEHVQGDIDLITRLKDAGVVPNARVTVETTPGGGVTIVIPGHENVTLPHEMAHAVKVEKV
Experiment: biochemical
Settings: EMSA, same values given in µM; read-out: IC50
Binary call on IC50 with cut-off 50 µM: strictly below means Criterion met, and equality or higher means Criterion not met.

Observe how each entry below is paired with its result.
1. Cc1c2ccccc2nc(C[S+]([O-])c2ccccc2)[n+]1[O-] (stereo not drawn) [Compound I-93]    Criterion not met
2. O=C1OC(C=Cc2ccccc2)=NC1=Cc1cccc([N+](=O)[O-])c1 [Compound I-18]    Criterion met
3. O=S(=O)(O)c1ccc(O)c(/N=N/c2ccc(O)cc2O)c1 [IS-2]    Criterion met

Please let me know if Cc1cc(=O)oc2c(CNC(C)C(=O)O)cc(O)cc12 (stereo not drawn) [Compound I-38] shows IC50 below 50 µM. Criterion not met

Quick check: does O=S(=O)(O)c1cccc2cccc(N=Nc3c(O)ccc4ccccc34)c12 [IS-6] have IC50 under 50 µM? Criterion not met

The reported measurements were obtained from paper PMC5498548.
